experiment-summary: Solubility of tricyclic derivative compound in solubilizing agents (HPLC)
Assay type: physicochemical
experimental-conditions: organic solvent or mixture; solvent: Glycerin
experimental-readout: solubility at 24 h (µg/mL)

                              record_smiles  experimental_readout  result_value
0  CCOc1cc2c(c(OC)c1OC)-c1ccc(SC)c(=O)cc1[C@@H](NC(=O)c1cccc(CO[N+](=O)[O-])c1F)CC2    solubility at 24 h           4.8

====

experiment-summary: Solubility of tricyclic derivative compound in solubilizing agents (HPLC)
Type: physicochemical
experimental-conditions: organic solvent or mixture; solvent: Ethanol
experimental-readout: solubility at 24 h (µg/mL)

                                   compound  units_symbol  result_value
0  CCOc1cc2c(c(OC)c1OC)-c1ccc(SC)c(=O)cc1[C@@H](NC(=O)c1cccc(CO[N+](=O)[O-])c1F)CC2 [tricyclic derivative compound]         µg/mL            35
